Assay: Pharmacokinetic experiments of tumor model (plasma and tumor tissue, H1975 xenograft mice)
Type: in vivo, Balb/C nude mice
Conditions: Balb/C nude, mouse, oral 30 mg/kg, plasma
measured.metric: half-life (h)
Answers are plain numbers, in h.

Data request: Could you share which half-life value was measured for "C=CC(=O)Nc1cc(Nc2nccc(-n3c(=O)n(C(C)C)c4cc(F)ccc43)n2)c(OC)cc1N(C)CCN(C)C" ?
Data returned: 3.1

###

System: LOVO
Test: Inhibition assay on tumor cell proliferation (CellTiter-Glo), LOVO
Format: cell-based, Human
Settings: Homo sapiens; LOVO (wild-type EGFR), 72 hours, 10% bovine serum
measured.metric: IC50

Give one value of IC50 per listed compound.
1. C=CC(=O)Nc1cc(Nc2nccc(-n3ccc4cc([N+](=O)[O-])ccc43)n2)c(OC)cc1N(C)CCN(C)C
2. C=CC(=O)Nc1cc(Nc2ncc(C(F)(F)F)c(-n3ccc4ccccc43)n2)c(OC)cc1N(C)CCN(C)C
3. C=CC(=O)Nc1cccc(Nc2nc(Nc3ccc(N4CCN(C(C)=O)CC4)cc3OC)ncc2C(F)(F)F)c1 [CO-1686, Rociletinib, reference compound]

Data returned:
1: > 1000 nM; 2: > 1000 nM; 3: > 1000 nM
